Assay: NCI Yeast Anticancer Drug Screen. Data for the bub3 strain (AID 167)
Conditions: S. cerevisiae bub3 mutant strain, at 5.0 µM (retest, dose inferred, filed as 0.5), active compounds read high
This is part of a sample that, as a whole, favours compounds with a hit. Of some 79,000 tested, about 15% had one in any assay.

smiles	growth inhibition [%]
CN(C)CC[N+](C)(C)Cc1ccc(C[N+](C)(C)CC[N+](C)(C)Cc2ccc(CCl)cc2)cc1	-6
O=[N+]([O-])c1cc(Cl)ccc1S(=O)(=O)c1ccccc1	-13
Cc1nc2c(cnn2C)cc1CCc1ccccc1	23
C[n+]1c(-c2ccc(/C=N\NC(=O)c3cccc(C(=O)N/N=C/c4ccc(-c5cn6ccccc6[n+]5C)cc4)c3)cc2)cn2ccccc21	15
C/C(O)=c1\cc(C#N)c(=C(C#N)C#N)nc1C	3

###

The entries below come with measured growth inhibition values attached.
Assay: NCI Yeast Anticancer Drug Screen. Data for the mec2-1 strain (AID 157)
Settings: S. cerevisiae mec2-1 strain, at 50.0 µM (retest, dose inferred, filed as 5.0), active compounds read high
Compounds without any hit were thinned out: in the full panel of roughly 79,000, 15% have a hit.
test readout: growth inhibition (%)

molecule	reported value
O=C(/N=C1\N=Nc2nc(C(C(=O)c3cccs3)c3nc4n(c3O)/C(=N/C(=O)Nc3ccc(Cl)cc3)N=N4)c(O)n21)Nc1ccc(Cl)cc1 (stereo not given)	23
O=C(O)c1c(Cl)c(Cl)c(Cl)c(Cl)c1-c1c2ccc(=O)cc-2oc2cc(O)ccc12	99
O=C(/C=C/c1ccccc1)c1cc2c(cc1O)OCO2	3
CCC[N+]1=C(/C=C/c2ccc3cccnc3c2O)C(C)(C)c2ccccc21	98
NC(=S)N/N=C\C12CC3CC(CC(C3)C1)C2	97

###

Experiment: NCI Yeast Anticancer Drug Screen. Data for the rad50 strain (AID 155);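 note: 0% = growth of vehicle-only cultures of the same strain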
Settings: S. cerevisiae rad50 strain growth inhibition; at 50.0 µM (retest, dose inferred, filed as 5.0)
Procedure: Growth inhibition of yeast strains with defined genetic alterations is measured as a screen for potential anti-cancer activity. Selected strains with alterations in DNA damage repair or cell cycle control were exposed to compounds and growth inhibition was measured relative to vehicle treated controls. The strain used in this assay is rad50
This is part of a sample that, as a whole, favours compounds with a hit. Of some 79,000 tested, about 15% had one in any assay. Activity calls are given as the source filed them. No stated cut-off is given here; in the data, active means growth inhibition above about 70%; inactive means the rest.
Outcomes: active, inactive

compound	answer label
COc1ccc(OC)c(/C=C2/C(=O)ON=C2C)c1	inactive
CCOC(=O)c1ccc(NC(=O)O/N=C(/Cl)CCl)cc1	active
COC1=CC(=O)C(C#CCOCc2ccccc2)=CC1=O	active
COC(=O)c1c(C(N)=O)c(C)n(NC(=O)Nc2ccccc2)c1C	active
NC(=Nc1ccccc1)SCc1ccc([N+](=O)[O-])cc1	inactive
CCc1cccc(CC)c1NC1=C(Cl)C(=O)c2ccccc2C1=O	active
NC(=O)NOCC1NC(=O)NC1=O (stereo not given)	inactive
c1ccc2c(c1)ccc1c2ccc2sc3ccccc3[n+]21	active
Cc1nc(Nc2ccc(Cl)cc2)sc1C(=O)Nc1cccc2c(=O)[nH][nH]c(=O)c12	inactive
CC1(c2ccccc2)NC(=O)N(CC(=O)N(c2ccccc2)c2ccccc2)C1=O (stereo not given)	inactive
COC(=O)c1ccc(-c2ccccc2)cc1	active
CN(C)C(=S)N/N=C/c1ccccn1	active
Cc1cccc2c1C1c3c(C)cccc3C(O)CC1CC2O (stereo not given)	inactive
Cc1ccc2nc(N/N=C/c3cccc(C)n3)cc(C)c2c1	inactive
CN(C)c1ccc(/C=C/c2ccnc3ccccc23)cc1Cl	active
O=C1NCCCNCCCNCCCNC(=O)c2cccc1n2	inactive
C/C(=N\Nc1n[nH]c(=S)n1N)c1c(O)cc(C)oc1=O	inactive
NC(Cc1ccccc1)c1ccc2cccc3c2c1CC3 (stereo not given)	inactive
O=C(Nc1ccccc1)c1cccc2ccccc12	inactive
Fc1cccc(CSc2n[nH]c(=S)c3nc[nH]c23)c1	inactive
O=C(O)CSc1cc2c3ccccc3sc2c2ccccc12	active
CCCCCCCCCCC[N+]1(Cc2ccccc2)CC2CCN(Cc3ccccc3)CC2C1 (stereo not given)	active
Cc1cc(NCCO)nc2c1ccc1ccccc12	inactive
CCc1n[nH]c(CC)c1CCCCCCOc1ccc(OC)cc1Cl	inactive
CC1([N+](=O)[O-])C(=O)C2(N3CCOCC3)CCCC2C1c1ccccc1 (stereo not given)	active
